Values from PubChem BioAssay (NCI)

Test system: KM12 colon
Experiment Description: NCI tumour cell line growth inhibition, 48 h

Molecule	GI50
COc1cc2c(cc1-c1c(C)noc1C)ncc1nc(C3CCCCC3)n(C3CCC(OC(F)F)CC3)c12 (stereo not drawn)	3.43 µM
Cc1ccc(/C=C2\CCOC2=O)cc1	> 100 µM
O=C1c2cccc3cccc(c23)C(=O)N1CCCCOc1ccc(-c2nc3ccc(N4CCOCC4)cc3[nH]2)cc1	2.88 µM

---

System: SF-539 CNS
Experiment Description: NCI tumour cell line growth inhibition, 48 h
The following compounds are shown together with reported TGI values.

Compound	TGI
Oc1ccc2ccccc2c1/C=N\Nc1ccccn1	> 26.8 µM
CC(C)(C)c1cc(C2COC(=O)COCCOCC(=O)OCCOCCO2)cc(C(C)(C)C)c1O (stereo not given)	> 100 µM
COC(=O)C1Cc2c([nH]c3ccccc23)-c2[nH]c3ccccc3c2CC(NC(C)=O)C(=O)NCC(=O)N1 (stereo not given)	> 100 µM
S=C1c2cc(Cl)ccc2NC(=NC2CCCC2)C2CSCN12 (stereo not given)	> 100 µM
Fc1ccc(C(=NCc2ccccc2)N2CCOCC2)cc1	> 100 µM

---

Tested on: HT29 colon
Experiment Description: NCI tumour cell line growth inhibition, 48 h
Measure: TGI

Entry Smiles	Assay Value
Cc1[nH]n(C(=O)c2ccccc2O)c(=O)c1/C=C1\C(=O)C=Cc2ccccc21	> 81 µM
COC(=O)CSc1[nH]c2nc(C)nc(Nc3ccccc3)c2c1C#N	> 10 µM
CC(C)(C)[C@@H]1NC(=O)CN1C(=O)OCc1ccccc1	> 100 µM
O=C1NC(=NCc2ccccn2)S/C1=C\c1ccc2ncccc2c1	> 25 µM
C[N+](C)(C)CCCCCc1c2nc(c(CCCCC[N+](C)(C)C)c3ccc([nH]3)c(CCCCC[N+](C)(C)C)c3ccc([nH]3)c(CCCCC[N+](C)(C)C)c3nc1C=C3)C=C2	> 100 µM
Cc1ccccc1NC(=O)c1[nH]c(=S)nc(N)c1-c1ccccc1C	> 100 µM

---

The following molecules are shown together with reported TGI values.
Test system: SW-620 colon
Experiment Description: NCI tumour cell line growth inhibition, 48 h
Where a SMILES comes first, the peptide text is derived from it. [ ]: non-standard residue; d: D form. The star is where a group is joined. X28 = COC1=CC(=O)N(C(=O)[C@@H](O*)C(C)C)[C@H]1Cc1ccccc1; NMeL = CN[C@@H](CC(C)C)C(=O)O; Hexanoyl = CCCCCC(=O)*
Measure: TGI

Molecule	Assay Value
CCCCCC(=O)N[C@H](C(=O)N[C@H](C(=O)N(C)[C@@H](CC(C)C)C(=O)N1CCC[C@H]1C(=O)N1CCC[C@H]1C(=O)O[C@H](C(=O)N1C(=O)C=C(OC)[C@@H]1Cc1ccccc1)C(C)C)C(C)C)C(C)C (Hexanoyl-VV[NMeL]PP-X28)	> 100 µM
N#CC(C#N)=C1NC(=O)C(c2ccccc2)C(=O)N1 (configuration not stated)	> 100 µM
CCCCc1ccc(N2C(=O)c3cc(C)cnc3S2(=O)=O)cc1	> 100 µM
Oc1ccc2ccccc2c1/C=N\Nc1ccccn1	> 100 µM
CSC(=S)N/N=C(\C)c1ccccn1	17.3 µM
NC(=O)NC(=O)CI	3.57 µM
CCC1OC2C(CC=C(C)C)=C3OC(C)(O)C(C)(CC)C(O)C3=C3OC(=O)C=C1C32 (configuration not stated)	> 100 µM

---

Test system: UACC-62 melanoma
Experiment Description: NCI tumour cell line growth inhibition, 48 h
Measure: TGI

Entry Smiles	Assay Target	Assay Value
O=C1NC(=NCc2ccccn2)S/C1=C\c1ccc2ncccc2c1	UACC-62 melanoma	> 25 µM
Brc1ccc(-c2ccc(-c3ccc(Br)s3)s2)s1	UACC-62 melanoma	> 100 µM
COC(=O)c1c(-c2ccccc2)csc1NC(=O)c1c(-c2ccccc2)noc1C	UACC-62 melanoma	> 100 µM

---

Test system: HL-60(TB) leukemia
Experiment Description: NCI tumour cell line growth inhibition, 48 h; in the data active = GI50 below about 0.43 µM; inactive = the rest
Classes used: active, inactive

Entry Smiles	Label Class
Fc1ccc(Nc2nc(Nc3ccc(-c4nc5ccccc5[nH]4)cc3)nc(N3CCCC3)n2)cc1	inactive
Cc1cc(S(N)(=O)=O)c(S/C(=N\NS(=O)(=O)c2ccc(Cl)cc2)c2ccc(Cl)cc2)cc1Cl	inactive
COc1cc2c(/C=C3\C(=O)Nc4ccc(Br)cc43)c(Cl)n(C)c2cc1C	inactive
O=C1c2cc3c(cc2-c2c1c1ccc([N+](=O)[O-])cc1c(=O)n2CCCCl)OCO3	active

---

Test system: SK-MEL-5 melanoma
Experiment Description: NCI tumour cell line growth inhibition, 48 h
The following compounds are shown together with reported TGI values.
Measure: TGI (µM)

Compound	Assay Target	Measure	Unit Name	Result Operator	Assay Value
COC(=O)c1c(-c2ccccc2)csc1NC(=O)c1c(-c2ccccc2)noc1C	SK-MEL-5 melanoma	TGI	µM	>	100
C=C1C(=O)O[C@H]2C1C[C@@H](O)[C@@]1(C)OC1CC[C@@]1(C)O[C@H]21 (stereo partly drawn)	SK-MEL-5 melanoma	TGI	µM	=	29.6
NS(=O)(=O)c1ccc(-n2nc(-c3ccc(Cl)cc3)cc2C2=CC(=O)C=CC2=O)cc1	SK-MEL-5 melanoma	TGI	µM	=	43.5

---

Tested on: HCC-2998 colon
Experiment Description: NCI tumour cell line growth inhibition, 48 h
Where a SMILES comes first, the peptide text is derived from it. [ ]: non-standard residue; d: D form. The star is where a group is joined. X28 = COC1=CC(=O)N(C(=O)[C@@H](O*)C(C)C)[C@H]1Cc1ccccc1; NMeL = CN[C@@H](CC(C)C)C(=O)O; Hexanoyl = CCCCCC(=O)*
Measure: TGI

Compound	Measure	Assay Value
Brc1ccc(-c2ccc(-c3ccc(Br)s3)s2)s1	TGI	> 100 µM
COc1ccccc1NC(=O)C1=C(C)NC(C)=C(C(=O)Nc2ccccc2OC)C1c1ccc(C(C)C)cc1	TGI	> 100 µM
O=C1NC(=NCc2ccccn2)S/C1=C\c1ccc2ncccc2c1	TGI	> 25 µM
Nc1nc(Cl)cc(NCC2(CO)CC(CCCCc3ccccc3)C2)n1 (centres undefined)	TGI	> 100 µM
CCOC1NC(=O)Oc2ccccc21 (centres undefined)	TGI	> 100 µM
CCCCCC(=O)N[C@H](C(=O)N[C@H](C(=O)N(C)[C@@H](CC(C)C)C(=O)N1CCC[C@H]1C(=O)N1CCC[C@H]1C(=O)O[C@H](C(=O)N1C(=O)C=C(OC)[C@@H]1Cc1ccccc1)C(C)C)C(C)C)C(C)C (Hexanoyl-VV[NMeL]PP-X28)	TGI	> 100 µM
CCN(CC)P1(=S)Oc2ccc3ccccc3c2-c2c(ccc3ccccc23)O1	TGI	> 100 µM
CC(=O)O[C@H]1CC[C@@]2(C)C(=CC[C@@H]3C2CC[C@]2(C)Nc4oncc4CC32)C1 (some centres undefined)	TGI	> 100 µM
COc1ccc(N=NN2CCCC2)cc1	TGI	> 100 µM
O=C1C(c2ccccc2)=C(c2ccccc2)C(c2ccccc2)/C1=C1\C(=O)C(c2ccccc2)=C(c2ccccc2)C1c1ccccc1 (centres undefined)	TGI	> 100 µM
CCCCc1ccc(N2C(=O)c3cc(C)cnc3S2(=O)=O)cc1	TGI	> 100 µM
COC(=O)c1c(C)nc(C)c(N=O)c1-c1ccccc1C(F)(F)F	TGI	> 100 µM
CCOC(=O)c1cc(-c2ccc(OC)c(OC)c2)cn1C	TGI	> 10 µM
COc1ccc2c(CNCCCCO)cc3cc4c(cc3c2c1)OCO4	TGI	6.57 µM
CC(=O)OC1COC(N2C(=O)C(=O)c3cc(Br)c([N+](=O)[O-])cc32)C(OC(C)=O)C1OC(C)=O (centres undefined)	TGI	> 100 µM
CC1(C)COC(c2cccc(C3=NC(C)(C)CO3)c2)=N1	TGI	> 100 µM
COc1ccc(C(=O)Nc2cccc(C3CC(=O)c4c(cc(OC)c(OC)c4OC)O3)c2)cc1 (centres undefined)	TGI	87.1 µM
O=Cc1ccc(C(F)(F)F)cc1.[C-]#[O+].[C-]#[O+].[C-]#[O+].[Cr]	TGI	> 100 µM
C/C=C/C1(NS(=O)(=O)c2ccc(C)cc2)CCC(C(C)(C)C)CC1 (centres undefined)	TGI	36.1 µM
S=C1c2cc(Cl)ccc2NC(=NC2CCCC2)C2CSCN12 (centres undefined)	TGI	> 100 µM
COC(=O)c1c(-c2ccccc2)csc1NC(=O)c1c(-c2ccccc2)noc1C	TGI	> 100 µM
COC(=O)CP1(=O)OC2C(C3CCC2(C)C3(C)C)N1c1cc(C(F)(F)F)cc(C(F)(F)F)c1 (centres undefined)	TGI	55.2 µM
C=C1C(=O)O[C@H]2[C@H]1CC/C(Cn1cc(CCC)nn1)=C\CC[C@@]1(C)O[C@@H]21	TGI	32.9 µM
COC(=O)C1Cc2c([nH]c3ccccc23)-c2[nH]c3ccccc3c2CC(NC(C)=O)C(=O)NCC(=O)N1 (centres undefined)	TGI	> 100 µM
